ETA ACTIVITY (ETA antagonist activity relative to reference compound) reference
- ASSAY_TARGET: human ETA receptors (Homo sapiens)
- Construct: endogenous in cells; host or cells: TE 671 cells (ATCC HTB 139), membrane preparation
- Sequence (P25101 21-427): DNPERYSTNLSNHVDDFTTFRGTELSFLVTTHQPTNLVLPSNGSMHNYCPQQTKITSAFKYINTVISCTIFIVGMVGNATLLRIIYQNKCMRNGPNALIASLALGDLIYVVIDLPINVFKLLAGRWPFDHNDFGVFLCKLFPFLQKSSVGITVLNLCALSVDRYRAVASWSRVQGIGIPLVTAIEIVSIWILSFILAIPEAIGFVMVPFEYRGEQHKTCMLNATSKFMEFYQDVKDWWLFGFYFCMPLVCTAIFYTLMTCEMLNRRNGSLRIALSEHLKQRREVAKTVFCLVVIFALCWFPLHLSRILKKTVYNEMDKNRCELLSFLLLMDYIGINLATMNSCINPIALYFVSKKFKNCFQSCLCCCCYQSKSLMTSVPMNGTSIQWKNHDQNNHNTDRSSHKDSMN
- EXPERIMENT_NOTES: Endothelin binding inhibition, Binding Test #1: inhibition of binding to ETA receptors (TE 671 cell membranes)
- EXPERIMENTAL_PARAMETERS: relative to N-(4-chloro-3-methyl-5-isoxazolyl)-2-{[3,4-(methylenedioxy)-6-methylphenyl)acetyl]-thiophene-3-sulfonamide (= 1.0)
ASSAY_METRIC: ETA ACTIVITY (ETA antagonist activity relative to reference compound)

MOLECULE	RESULT_VALUE
CC(=O)c1cc2c(cc1NC(=O)c1sccc1S(=O)(=O)Nc1onc(C)c1C)OCO2	0.05
Cc1cc(C)c(NC(=O)c2sccc2S(=O)(=O)Nc2onc(C)c2Cl)c(C(=O)N(C)CC(C)(C)C)c1	2.7
CC(=O)c1cc(C)cc(C)c1NC(=O)c1sccc1S(=O)(=O)Nc1onc(C)c1C	18.1
Cc1cc(C)c(NC(=O)c2sccc2S(=O)(=O)Nc2onc(C)c2C)c(C#N)c1C	18.6
Cc1cc(C)c(NC(=O)c2sccc2S(=O)(=O)Nc2onc(C)c2Cl)c(Cl)c1	20.7
Cc1cc2c(cc1CC(=O)c1sccc1S(=O)(=O)Nc1onc(C)c1Cl)OCO2 [reference compound]	1.0
Cc1cc(C)c(NC(=O)c2sccc2S(=O)(=O)Nc2onc(C)c2Cl)c(C(=O)N(C)C)c1	14.4
Cc1cc(C)c(NC(=O)c2sccc2S(=O)(=O)Nc2onc(C)c2Cl)c(S(C)(=O)=O)c1	64.1
Cc1cc(C)c(CC(=O)c2sccc2S(=O)(=O)Nc2onc(C)c2Cl)c(C)c1	6.4
Cc1nc(C)c(NC(=O)c2sccc2S(=O)(=O)Nc2onc(C)c2Cl)c(C)n1	2.0
CCc1cc(C)cc(C)c1NC(=O)c1sccc1S(=O)(=O)Nc1onc(C)c1Cl	3.8
Cc1cc(C)c(NC(=O)c2sccc2S(=O)(=O)Nc2onc(C)c2Cl)c(C(=O)O)c1	0.05
Cc1cc(C)c(NC(=O)c2sccc2S(=O)(=O)Nc2onc(C)c2Cl)c(C(C)O)c1 (stereo not shown)	26.4
Cc1cc(-c2ncco2)cc(C)c1NC(=O)c1sccc1S(=O)(=O)Nc1onc(C)c1Cl	1.1
CC(=O)c1cc2c(cc1NC(=O)c1sccc1S(=O)(=O)Nc1onc(C)c1Cl)OCO2	0.15
Cc1cc(C)c(NC(=O)c2sccc2S(=O)(=O)Nc2onc(C)c2Cl)c(C(N)=O)c1	1.04
